Molecular target: DNMT2 (Homo sapiens, UniProt O14717)
Construct: Recombinant human DNMT2 (full-length); His-tag; made in house; host or cells: E. coli
Sequence (O14717 whole entry): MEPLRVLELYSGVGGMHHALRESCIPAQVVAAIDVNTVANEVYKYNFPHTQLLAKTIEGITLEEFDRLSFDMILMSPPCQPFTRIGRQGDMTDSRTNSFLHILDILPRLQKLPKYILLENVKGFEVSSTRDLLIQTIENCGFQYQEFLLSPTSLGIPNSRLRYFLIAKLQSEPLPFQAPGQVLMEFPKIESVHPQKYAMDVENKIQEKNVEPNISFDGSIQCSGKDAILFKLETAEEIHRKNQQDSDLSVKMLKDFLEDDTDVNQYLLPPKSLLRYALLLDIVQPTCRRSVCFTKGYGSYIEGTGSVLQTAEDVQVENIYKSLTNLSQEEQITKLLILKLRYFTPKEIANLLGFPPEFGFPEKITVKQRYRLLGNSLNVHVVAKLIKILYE
Experiment: Affinity selection-mass spectrometry (AS-MS)
Assay type: binding
Details: 5 μM DNMT2, label-free
OBSERVATION_TYPE: pKd
Just so you know, pKd here is -log10 of the concentration in molar units; reply with that number alone.

Measured pKd, CCc1ccc(C(=O)NCC2(C(=O)NC(CC(=O)NCC(=O)NC)Cc3c[nH]c4ccccc34)CC2)cc1 (stereo not shown) : 5.08

----------
Assay: ATP-quantifying cell viability assay, 48 h
Assay type: cell-based
Conditions: human, MOLM-13, HCT, Huh-7, MDA-MB-231 and HEK293 cells, all cell lines
OBSERVATION_TYPE: CC50 at 48 h

Measured CC50 at 48 h, Nc1ncn([C@@H]2O[C@H](CO)[C@@H](O)[C@H]2O)c(=O)n1 [azacitidine] : < 10 µM

----------
Biological target: DNMT2 (Homo sapiens, UniProt O14717)
Construct: Recombinant human DNMT2 (full-length); His-tag; made in house; host or cells: E. coli
Test: MST displacement assay with fluorescent FTAD probe
Assay type: binding
Details: ligand 100 μM, FTAD probe
param class (str): category from Fnorm (% displ.): FTAD displacement; see ranges low-valued (below 5%), mid-valued (5% to below 10%), high-valued (10% or more)

Solved cases (2 shown):
COMPOUND: CCc1ccc(C(=O)NCC2(C(=O)N[C@@H](CC(=O)NCC(N)=O)Cc3ccc(Br)cc3)CC2)cc1
CLASS_NAME: high-valued

COMPOUND: CCc1ccc(C(=O)NCC2(C(=O)N[C@@H](CC(=O)N[C@H](C)C(N)=O)Cc3ccccc3)CC2)cc1
CLASS_NAME: mid-valued

Band assignment needed for NC(=O)CNC(=O)C[C@@H](Cc1ccccc1)NC(=O)C1(CNC(=O)c2ccc(C3(C(F)(F)F)N=N3)cc2)CC1 please.
high-valued

Band assignment needed for CCc1ccc(C(=O)NCC2(C(=O)N[C@@H](CC(=O)NCC(=O)O)Cc3c[nH]c4ccccc34)CC2)cc1 please.
high-valued

Band assignment needed for CCc1ccc(C(=O)NCC2(C(=O)NC(CC(=O)NCC(=O)NC)Cc3c[nH]c4ccccc34)CC2)cc1 (centres unmarked) please.
high-valued

Band assignment needed for CCc1ccc(C(=O)NCC2(C(=O)N[C@@H](CC(=O)NCC(N)=O)Cc3ccccc3)C[C@H]2S(C)(=O)=O)cc1 (some centres unmarked) please.
mid-valued

Band assignment needed for CCc1ccc(C(=O)N(C)CC2(C(=O)NC(CC(=O)NCC(N)=O)Cc3ccccc3)CC2)cc1 (centres unmarked) please.
mid-valued

Band assignment needed for COc1ccc(C(=O)NCC2(C(=O)N[C@@H](CC(=O)NCC(N)=O)Cc3ccccc3)CC2)cc1 please.
high-valued

Band assignment needed for CCc1ccc(C(=O)NCC2(C(=O)NCCC(=O)NCC(N)=O)CC2)cc1 please.
low-valued

Band assignment needed for CCc1ccc(C(=O)NCC2(C(=O)NC(CC(=O)NCC(N)=O)Cc3ccc(C#N)cc3)CC2)cc1 (centres unmarked) please.
high-valued

----------
Assay: Parallel artificial membrane permeation assay (PAMPA)
Format: in vitro ADME
Details: PAMPA, 7 h incubation, duplicates
OBSERVATION_TYPE: Papp at 7 h (×10⁻⁶ cm/s)
Form entry: value (×10⁻⁶ cm/s) — number only.

Measured Papp at 7 h, CCc1ccc(C(=O)NCC2(C(=O)NC(CC(=O)NCC(N)=O)Cc3ccc(Cl)cc3)CC2)cc1 (stereo not shown) : 0.3
